- Protocol Details: The drug is tested on Z-022 corresponding to mouse gut metagenome with ENA study accession number: PRJEB37062 and ENA sample accession number: ERS12561821 for biotransformation under anaerobic condition. The drug concentrations were measured over 9 timepoints collected between 0 and 24 hours of incubation by liquid-chromatography-coupled mass spectrometry (LC–MS); also: call rule not given here
- Run Parameters: 2 µM
Observation Type: Bacterial Biotransformation

Below, each entry is followed by its recorded Bacterial Biotransformation result.
> print(dat)
                                   molecule            measured.value
1  C#C[C@]1(O)CC[C@H]2[C@@H]3CCC4=CC(=O)CC[C@@H]4[C@H]3CC[C@@]21CC [LEVONORGESTREL]      Compound metabolized
2  CC(CN1c2ccccc2Sc2ccccc21)N(C)C (configuration not stated) [PROMETHAZINE]  Compound NOT metabolized
3  CC(C)c1nc(CN(C)C(=O)N[C@H](C(=O)N[C@@H](Cc2ccccc2)C[C@H](O)[C@H](Cc2ccccc2)NC(=O)OCc2cncs2)C(C)C)cs1 [RITONAVIR]  Compound NOT metabolized
4  CCN(CC)CCNC(=O)c1cc(Cl)c(N)cc1OC [METOCLOPRAMIDE]  Compound NOT metabolized
5  CN1CCN(C2=Nc3cc(Cl)ccc3Nc3ccccc32)CC1 [CLOZAPINE]  Compound NOT metabolized

[in] Consider the molecule CCCc1nc2c(C)cc(-c3nc4ccccc4n3C)cc2n1Cc1ccc(-c2ccccc2C(=O)O)cc1 and give its measured Bacterial Biotransformation.
[out] Compound metabolized

[in] Query Fc1ccc([C@@H]2CCNC[C@H]2COc2ccc3c(c2)OCO3)cc1 [PAROXETINE] next
[out] Compound metabolized

[in] Query CC(C)c1c(C(=O)Nc2ccccc2)c(-c2ccccc2)c(-c2ccc(F)cc2)n1CC[C@@H](O)C[C@@H](O)CC(=O)O [ATORVASTATIN] next
[out] Compound NOT metabolized

[in] Query CN1CCc2c(c3ccccc3n2Cc2ccccc2)C1.CN1CCc2c(c3ccccc3n2Cc2ccccc2)C1.O=S(=O)(O)c1cccc2c(S(=O)(=O)O)cccc12 next
[out] Compound NOT metabolized

[in] Query CN1C(=O)CCS(=O)(=O)C1c1ccc(Cl)cc1 (configuration not stated) [CHLORMEZANONE] next
[out] Compound NOT metabolized

[in] Query COc1ccc2[nH]c([S+]([O-])Cc3ncc(C)c(OC)c3C)nc2c1 (configuration not stated) [OMEPRAZOLE] next
[out] Compound NOT metabolized

[in] Query COc1ccc(CCN(C)CCCC(C#N)(c2ccc(OC)c(OC)c2)C(C)C)cc1OC (configuration not stated) next
[out] Compound NOT metabolized

[in] Query CCC(=O)NCC[C@@H]1CCc2ccc3c(c21)CCO3 [RAMELTEON] next
[out] Compound metabolized

[in] Query CCCc1nn(C)c2c(=O)[nH]c(-c3cc(S(=O)(=O)N4CCN(C)CC4)ccc3OCC)nc12.O=C(O)CC(O)(CC(=O)O)C(=O)O [SILDENAFIL CITRATE] next
[out] Compound metabolized

[in] Query CC(C)(C#N)c1cc(Cn2cncn2)cc(C(C)(C)C#N)c1 [ANASTROZOLE] next
[out] Compound metabolized

[in] Query OCCOCCN1CCN(C2=Nc3ccccc3Sc3ccccc32)CC1 [QUETIAPINE] next
[out] Compound NOT metabolized

[in] Query CO[C@]12C[C@@H](COC(=O)c3cncc(Br)c3)CN(C)[C@@H]1Cc1cn(C)c3cccc2c13 [NICERGOLINE] next
[out] Compound metabolized
